# Tested on: SNB-19
# Experiment Description: NCI tumour cell line growth inhibition, 48 h
The source made the active and inactive calls. Cut-off read from the data, not from the text of the source: active = GI50 up to about 1.1 µM and inactive = higher.
Just give me one of these, please: 1.0 (active), 0.0 (inactive)

Below, 2 compounds whose answers are already recorded.
>>> label_class("CC(=O)CC1CCC(=O)CCC(=O)OC(CC(C)=O)CCC(=O)CCC(=O)O1 (stereo not given)")
0.0
>>> label_class("c1cc(-c2ccc(-c3ccc(-c4ccc(-c5ccncc5)o4)cc3)o2)ccn1")
0.0

Identify the outcome logged in this assay for the compound shown: `O=C1CCCc2cc3c(cc21)CC1(C3)Cc2cc3c(cc2C1)C(=O)CCC3`
0.0

What did the test return for `c1ccc(C(=NNc2nc3ccccc3[nH]2)c2ccccn2)nc1` ?
1.0

Give the logged outcome of this assay for the following compound: CN(C)P(=O)(Oc1ccc(CC(NC(=O)OCc2ccccc2)C(=O)OCc2ccccc2)cc1)N(C)C (stereo not given)
0.0

Can you look up the reported call for CCCCCCCCCCCC(=O)OCC1OC(n2cc(F)c(=O)[nH]c2=O)C(NC(=O)OCc2ccccc2)C(O)C1O (stereo not given) for me?
0.0

Write down the call the test reported for this compound. Item: `Cc1cccc(-c2cc(O)c3cccnc3n2)c1`
0.0

What call does the record list for `O=C(NCc1cccnc1)C(=O)NCc1cccnc1` ?
0.0

Just curious, what result did `Cc1cc2c(=O)cc(-c3ccncc3)oc2c(C(N)=O)c1C` get here?
0.0

Any idea what this test logged for `Cc1ccc(-c2c(C#N)c(-c3ccccc3)n(NS(=O)(=O)c3ccc(C)cc3)c(=O)c2C#N)cc1` ?
0.0

* * *

# Test system: HCT-116
# Experiment Description: NCI tumour cell line growth inhibition, 48 h
The source made the active and inactive calls. No stated cut-off is given here; in the data, active = GI50 up to about 1.1 µM and inactive = higher.
Hi there, I'd appreciate the recorded GI50 for every entry that follows.

Some compounds with known GI50 results, for comparison:
>>> result("CSc1nc(NC2OC(COC(C)=O)C(OC(C)=O)C(OC(C)=O)C2OC(C)=O)c(/N=C\\C=N/c2c(NC3OC(COC(C)=O)C(OC(C)=O)C(OC(C)=O)C3OC(C)=O)nc(SC)n(C)c2=O)c(=O)n1C (centres undefined)")
"> 100 µM (inactive)"
>>> result("COc1cc(-c2c(C)c(C)nc(OC)c2C#N)cc(OC)c1OC")
"> 100 µM (inactive)"
>>> result("CCOC(=O)/C(C(=O)c1ccccc1)=C1\\N[C@H](C(=O)OCC)CS1")
"> 100 µM (inactive)"
>>> result("NC(=O)NC1C(C(N)=O)N(Cc2ccccc2)C(=O)N1Cc1ccccc1 (centres undefined)")
"> 100 µM (inactive)"

Parameter requested: GI50. Apply to each item below.
1. CCCN1C(=O)/C(=C\c2ccc(OC)c(OC)c2)S/C1=N\c1ccccc1
2. N#Cc1c(N)nc(Sc2ccccc2N)c(C#N)c1-c1ccc(Cl)cc1
3. CC(NC1=NCCO1)c1ccccc1Cl (centres undefined)

> 100 µM (inactive)
6.81 µM (inactive)
60.4 µM (inactive)

Please supply GI50 for each of the following items, keeping them in order.
1. CC(C)C(/C=C/c1ccccc1)=N\NC(=O)N/N=C(/C=C/c1ccccc1)C(C)C
2. CSC1=C(C)S/C(=C\c2ccc(/C=C3\SC(C)=C(SC)S3)cc2)S1

1. 19.1 µM (inactive)
2. > 100 µM (inactive)
